Source: PubChem BioAssay

Tested on: Plasmodium falciparum Sir2 (PF13_0152, Sir2A)
assayText: pfSir2 binders on small-molecule microarrays, primary screen, biochemical, small-molecule microarray, 635 nm fluorescence (AID 1098);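 also: score merges spot fluorescence intensity with its signal-to-noise ratio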
assaySetup: small-molecule microarray binding, fluorescence 635 nm; higher = more signal
The label depends only on composite z-score: satisfied if it is at least 0.8, not satisfied if it is smaller.

Incoming: API: above_or_equal(metric=composite z-score, cutoff=0.8) for item `COc1cc2c(cc1O)C=[N+](Cc1cccc(OC(F)(F)F)c1)CC2`
Outgoing: not satisfied

Incoming: Tell me whether composite z-score is at least 0.8 here: `COCCOC(=O)N1C(=O)[C@@]2(c3cc(C#CCCO)ccc31)[C@H](C(=O)N1CCc3cc(OC)c(OC)cc3C1)[C@H]1C(=O)O[C@H](c3ccccc3)[C@H](c3ccccc3)N1[C@@H]2c1ccc(O)cc1`
Outgoing: satisfied

Incoming: Please check the record `CN(C)C(=O)[C@@]1(Cc2ccccc2CN=[N+]=[N-])N=C(c2ccc(OCCCO)cc2)O[C@H]1c1ccccc1` and state if its composite z-score is at or above 0.8.
Outgoing: satisfied

Incoming: State whether the measured composite z-score reaches 0.8, counting equality as reaching it, for `O=C(NCc1ccccc1)[C@@]1(CCS(=O)(=O)c2ccccc2)N=C(c2ccc(OCCCO)cc2)O[C@H]1c1ccccc1`
Outgoing: not satisfied

Incoming: Hi team, for `CC(C)(C)C(=O)N[C@@H](c1ccc(Cl)cc1)[C@]1(C)C[C@H]1C1CCCCC1` , is the recorded composite z-score at or above 0.8?
Outgoing: not satisfied

* * *

Hi there, I'd appreciate the recorded composite z-score for every entry that follows.
testedOn: Torsin-1A (Homo sapiens) (UniProt O14656)
Sequence (O14656 whole entry, looked up): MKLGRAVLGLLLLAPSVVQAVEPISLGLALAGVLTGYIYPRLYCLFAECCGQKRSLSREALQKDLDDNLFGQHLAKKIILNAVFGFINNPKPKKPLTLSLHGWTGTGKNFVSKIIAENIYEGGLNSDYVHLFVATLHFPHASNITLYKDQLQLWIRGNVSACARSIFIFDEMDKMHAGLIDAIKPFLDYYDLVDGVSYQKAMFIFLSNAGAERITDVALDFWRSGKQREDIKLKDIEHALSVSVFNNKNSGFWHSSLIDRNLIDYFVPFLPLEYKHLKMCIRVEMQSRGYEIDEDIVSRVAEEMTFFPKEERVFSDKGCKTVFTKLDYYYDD
assayText: small-molecule binders of mutant TOR1A in lysate, primary screen, cell lysate, small-molecule microarray, COS7 lysate, 635/667 nm fluorescence (AID 1150);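 also: score pools 667 nm emission and signal to noise measuring lysate protein binding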
assaySetup: COS7 hTOR1A mutant lysate, 635 nm fluorescence, higher = more signal
Could you respond with only the numeric value?

Incoming: Please indicate composite z-score recorded for CCCCCN1CC=CC23O[C@@H]4/C=C\CCCOC(=O)C4[C@H]2C(=O)N(CCCO)[C@@H]3C1=O (stereo partly drawn)
Outgoing: 2.27

Incoming: Dear colleague, please send me the reported composite z-score for `COC(=O)[C@@]1(Cc2ccc(F)cc2)[C@H]2c3cc(C(=O)N(C)C)n(Cc4nc5ccccc5[nH]4)c3C[C@H]2CN1C(=O)c1ccccc1` when you can.
Outgoing: 0.484

Incoming: Hello, please tell me recorded composite z-score for this one: `O=C(O)[C@@]1(CCS(=O)(=O)c2ccccc2)COC(c2ccc(OCCCO)cc2)=N1`
Outgoing: 0.333

* * *

assayText: binders of probe aHhip on microarray, primary screen, stem cell growth factor project, biochemical, small-molecule microarray, fluorescence 635/667 (AID 1087);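 also: score merges spot fluorescence at 667nm with spot signal to noise ratio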
assaySetup: higher = more signal
Assignment: determine reported composite z-score for the given compounds.
Please respond with just the number, no unit label.

Incoming: Give the reported composite z-score for this compound. `CC(C)[C@@H](CO)NC(=O)[C@H]1[C@@H](c2ccccc2)N(c2ccccc2)O[C@@H]1C`
Outgoing: -0.0237

Incoming: Provide measured composite z-score value, entry: `CC(C)(C)OC(=O)CC[C@]1(C(=O)O)N=C(c2ccc(OCCCO)cc2)O[C@H]1c1ccccc1N=[N+]=[N-]`
Outgoing: 1.24

Incoming: Determine from records and report composite z-score for CS(=O)(=O)CCOC(=O)C1=CC(CCCO)=CC(c2ccc(CN3CCCC3)cc2)N(Cc2cc3c(cc2Br)OCO3)C=C1C(=O)OCCS(C)(=O)=O (stereo not given)
Outgoing: 0.224

Incoming: Give me measured composite z-score, please, for this compound: O=C1OCC=C[C@H]2OC34C=CCN(CCN5CCOCC5)C(=O)[C@H]3N(CCCO)C(=O)[C@@H]4[C@@H]12 (stereo not given in full)
Outgoing: -0.0003

Incoming: Note down composite z-score recorded for `CCOC(=O)[C@H]1C/C=C/C[C@H](C(=O)OCC)C(=O)O[C@H]2[C@@H](OC)O[C@H](CO)[C@@H](OC(=O)Nc3ccc(C#N)cc3)[C@@H]2OC1=O`
Outgoing: -0.119

* * *

assayText: MM1S cell viability effects, profiling panel, calcein-AM fluorescence, 48 h, basal (AID 1165);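 also: viability of MM1S multiple myeloma cells under basal unstimulated conditions; test concentration not given here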
assaySetup: higher = more signal
Answer each item with its documented z-score.
The answer should be written as a number, with no unit following it.

Incoming: Name the recorded z-score of the item `COc1cc2c(cc1OC)CN(C(=O)[C@@H]1[C@H]3C(=O)O[C@H](c4ccccc4)[C@H](c4ccccc4)N3[C@H](c3ccc(O)cc3)[C@@]13C(=O)Nc1ccc(C#CC4(O)CCCCCC4)cc13)CC2` in your answer.
Outgoing: 0.132

Incoming: Output measured z-score for this item: `Cc1ccc(S[C@]2(C(=O)NC(C)C)CC(=O)N(Cc3ccccc3Cl)[C@@H]2c2ccc(CO)cc2I)cc1`
Outgoing: -2.71

Incoming: State, in one line, measured z-score of `COCC(=C=CC[C@@H](O)c1ccccc1OCCO)C[C@@H](O)c1cc(Cl)cc(Cl)c1O`
Outgoing: -3.32

Incoming: Determine its reported z-score: `CCOC(=O)C[C@H]1[C@H](OC(=O)c2ccc(C(=O)c3ccccc3)cc2)[C@@H](NC(=O)c2ccc(-c3ccccc3)cc2)c2cc(OCCCO)ccc2N1C(=O)c1ccccc1`
Outgoing: -0.821

Incoming: Retrieve z-score measured for `COc1ccc([Si](C)(C)[C@@H]2[C@@H](CC(=O)N3Cc4ccccc4C[C@H]3CO)O[C@]3(C(=O)N(C)c4c(Br)cc(C)cc43)[C@H]2C)cc1` and print it.
Outgoing: -2.66

Incoming: Give z-score for the following molecule: `O=C1c2ccccc2[C@](Cc2ccccc2I)(C(=O)NC2CC2)[C@H](c2ccc(CO)cc2)N1C1CCCCC1`
Outgoing: -1.02

* * *

assayText: small-molecule microarray binders of probe aEGFR, primary screen, biochemical, biotinylated probe, 635/667 nm fluorescence (AID 1097);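 also: probe is a biotinylated anti-EGFR antibody binding compounds printed on slides; score combines fluorescence near 667 nm and signal to noise of each spot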
assaySetup: higher = more signal
Entries are grouped by composite z-score into these classes: LOW (below -0.2), MEDIUM (-0.2 to below -0.08), HIGH (-0.08 or more)

Incoming: Using the reported composite z-score, which band applies to C=CCN(Cc1ccccc1)C(=O)C(c1cccs1)N(CCOCCO)C(=O)/C=C\C(=O)O (stereo unspecified) ?
Outgoing: LOW

Incoming: Which bin should I file `O=C(O)[C@@]1(CCS(=O)(=O)c2ccccc2)COC(c2ccc(OCCCO)cc2)=N1` under?
Outgoing: MEDIUM

Incoming: The entry to classify is `COC(=O)[C@@]1(Cc2ccc(F)cc2)[C@@H]2[C@@H](CC(=O)[C@H]2CC(=O)C(=O)N(C)C)CN1C(=O)c1ccccc1` ; which class holds it?
Outgoing: HIGH

Incoming: Categorize the following entry: O=C1C2C=CC(C(O)C(c3ccccc3)c3ccccc3)N(n3cnnc3)C2C(=O)N1Cc1ccccc1 (stereo unspecified)
Outgoing: MEDIUM

Incoming: The entry to classify is `COC(=O)[C@@]1(Cc2ccc(F)cc2)[C@H]2c3cc(C(=O)N(C)C)n(Cc4ccc(S(C)(=O)=O)cc4)c3C[C@H]2CN1C(=O)c1ccccc1` ; which class holds it?
Outgoing: HIGH

Incoming: Which category does the recorded composite z-score put `CC(C)(C)OC(=O)CC[C@@]1(C(=O)NCCN2CCOCC2)N=C(c2ccc(OCCCO)cc2)O[C@@H]1c1ccccc1N=[N+]=[N-]` in?
Outgoing: HIGH

Incoming: Class label required: `Cc1ccc(S[C@]2(C(=O)NC(C)C)CC(=O)N(Cc3ccccc3Cl)[C@@H]2c2ccc(CO)cc2I)cc1`
Outgoing: LOW

Incoming: Class label required: `CC(C)N1C(=O)c2ccccc2[C@](C)(C(=O)NCc2ccccc2)[C@@H]1c1ccc(CO)cc1`
Outgoing: LOW

Incoming: Which class is correct for the following compound? CCOC(=O)C1=CCC(c2ccccc2)N(S(=O)(=O)CC[Si](C)(C)C)C1 (stereo unspecified)
Outgoing: LOW

Incoming: Exercise: read the entry `CCOC(=O)C=Cc1cc([N+](=O)[O-])ccc1O` and state which class it falls under.
Outgoing: MEDIUM

Incoming: Form field 'band' for `CC[C@@H]1C=C(C(=O)O)[C@H](c2ccco2)N1S(=O)(=O)c1ccc(C)cc1`
Outgoing: MEDIUM

* * *

assayText: MM1S cell viability effects, profiling panel, calcein-AM fluorescence, 48 h, basal (AID 1165);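 also: viability of MM1S multiple myeloma cells under basal unstimulated conditions; test concentration not given here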
assaySetup: higher = more signal
Each entry gets not met if its z-score stays under -0.08, and met if its z-score is -0.08 or above.

Incoming: Has COc1ccc(C(O)C2C=CC3C(=O)N(c4ccccc4)C(=O)C3N2Nc2ccccc2F)cc1OCc1ccccc1 (stereo not drawn) a recorded z-score greater than or equal to -0.08?
Outgoing: met

Incoming: Dear colleague, could you confirm whether CN1C(=O)C2C=CC(C(O)C3CCCCC3)N(Nc3ccc([N+](=O)[O-])cc3[N+](=O)[O-])C2C1=O (stereo not drawn) has z-score at or above -0.08?
Outgoing: not met

Incoming: Please tell me: is the compound `C=C(CCCC)/C(=C/C[C@@H](OC(C)=O)c1ccccc1OCCO)c1cnc2ccccc2c1` at or over -0.08 in terms of z-score?
Outgoing: not met

Incoming: Has `C=C(COC)/C(=C/C[C@@H](OC(C)=O)c1ccc(OCCO)cc1)c1cc(C(=O)OC)ccc1OC` a recorded z-score greater than or equal to -0.08?
Outgoing: not met

Incoming: Textbook exercise: given the entry `NC(=O)[C@@H]1[C@H]2C(=O)O[C@H](c3ccccc3)[C@H](c3ccccc3)N2[C@H](c2ccc(O)cc2)[C@@]12C(=O)Nc1ccc(C#CC3(O)CCCCCC3)cc12` , state whether its z-score is greater than or equal to -0.08.
Outgoing: not met

Incoming: Does the reported z-score for `CCCC[C@H]1OB(O)C[C@H]2C1=C(COc1ccccc1)C[C@H]1C(=O)N(C)C(=O)[C@H]12` fall at or above the -0.08 mark?
Outgoing: not met

Incoming: Evaluate `NCCCCCNC(=O)[C@@H]1C[C@@H]2C(=O)NCC(=O)N2[C@@H]1c1ccc(O)cc1` : z-score at minimum -0.08?
Outgoing: met

Incoming: Check this compound for z-score at or above -0.08: CN1C(=O)C2C=CC(C(O)C3CC=CCC3)N(NC(=O)OC(C)(C)C)C2C1=O (stereo not drawn)
Outgoing: met
